IC50, human Smo (amino acids 181-787) (Homo sapiens, UniProt Q99835): measured values
State just the number; it will be interpreted in nM.

Reference set (2 entries):
| chemical_smiles | value_type | observed_result |
| --- | --- | --- |
| COCc1nnc2n1CCN(c1cc(-c3nc4ccccc4n3C)c(Cl)cn1)CC2 | IC50 | 53 |
| Cn1c(-c2cc(N3[C@@H]4CC[C@H]3CNC4)ncc2Cl)nc2ccccc21 | IC50 | 13 |

Inquiry: Data request, read-out IC50, for "CC(=O)NC1CN(c2cc(-c3nc4ccccc4n3C)c(Cl)cn2)C1"
Reply text: 190

Inquiry: Also, "CN(CCNS(C)(=O)=O)c1cc(-c2nc3ccccc3n2C)c(Cl)cn1" please.
Reply text: 22

Inquiry: Also, "Cn1c(-c2cc(N3CCC(C(=O)N4CCCC4)CC3)ncc2Cl)nc2ccccc21" please.
Reply text: 55

Inquiry: Also, "Cn1c(-c2cc(N3CCN(C(=O)CO)CC3)ncc2F)nc2ccccc21" please.
Reply text: 15

Inquiry: Also, "Cn1c(-c2cc(N3CC[C@H](O)C3)ncc2Cl)nc2ccccc21" please.
Reply text: 79

Inquiry: Also, "Cn1c(-c2cc(N3CCC(F)(F)CC3)ncc2Cl)nc2ccccc21" please.
Reply text: 57

Inquiry: Also, "Cn1c(-c2cc(N3CCN(C(=O)CO)CC3)ncc2Cl)nc2ccccc21" please.
Reply text: 11

====

- system_under_test: human Smo (amino acids 181-787) (Homo sapiens, UniProt Q99835)
- Construct: expressed in transfected cells; membrane preparation
- Sequence (Q99835 181-787): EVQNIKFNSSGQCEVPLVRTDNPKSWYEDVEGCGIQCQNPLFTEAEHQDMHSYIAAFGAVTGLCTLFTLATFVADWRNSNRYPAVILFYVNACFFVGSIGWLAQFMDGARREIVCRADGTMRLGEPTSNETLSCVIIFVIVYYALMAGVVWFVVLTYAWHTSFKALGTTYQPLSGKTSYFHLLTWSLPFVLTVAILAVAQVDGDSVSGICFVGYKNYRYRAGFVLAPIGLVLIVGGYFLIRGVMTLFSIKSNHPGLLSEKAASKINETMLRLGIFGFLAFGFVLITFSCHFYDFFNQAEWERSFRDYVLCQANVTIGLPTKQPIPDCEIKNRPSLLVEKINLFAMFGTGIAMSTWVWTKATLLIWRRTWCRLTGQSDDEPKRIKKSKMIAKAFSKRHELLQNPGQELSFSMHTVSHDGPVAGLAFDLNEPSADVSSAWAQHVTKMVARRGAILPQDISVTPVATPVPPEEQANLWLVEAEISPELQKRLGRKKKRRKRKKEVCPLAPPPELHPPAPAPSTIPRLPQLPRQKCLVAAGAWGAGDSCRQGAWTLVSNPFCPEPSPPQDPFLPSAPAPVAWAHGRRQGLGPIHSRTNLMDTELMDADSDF
- assay: Smo radioligand competition binding assay (displacement of 3H-PF-03451358 from HEK293 membranes)
- assay_conditions: 0.05 μM test compound; displacement of 3H-PF-03451358; read-out: SMO % inh. @ 0.05 μM
value_type: inhibition at 0.05 µM (%)
State just the number; it will be interpreted in %.

| molecule | output_unit | observed_result |
| --- | --- | --- |
| CC(=O)N1CCN(c2cc(-c3nc4ccccc4n3C)c(C)cn2)CC1 [Example E-4] | % | 92 |
| Cn1c(-c2cc(N3CCC(C(=O)O)CC3)ncc2Cl)nc2ccccc21 [Example A-7] | % | 39 |
| CC(=O)NC1CCN(c2cc(-c3nc4ccccc4n3C)c(Cl)cn2)C1 (stereo not drawn) [Example A-42] | % | 72 |
| CC(=O)N[C@H]1[C@@H]2CN(c3cc(-c4nc5ccccc5n4C)c(Cl)cn3)C[C@@H]21 [Example A-9] | % | 74 |
| CC1C(=O)NCCN1c1cc(-c2nc3ccccc3n2C)c(Cl)cn1 (stereo not drawn) [Example A-171] | % | 97 |

Inquiry: Data request, read-out inhibition at 0.05 µM, for Cn1c(-c2cc(N3CCN(S(=O)(=O)CCO)CC3)ncc2F)nc2ccccc21 [Example D-15]
Reply text: 101

====

- system_under_test: human Smo (amino acids 181-787) (Homo sapiens, UniProt Q99835)
- Construct: expressed in transfected cells; membrane preparation
- assay: Smo radioligand competition binding assay (displacement of 3H-PF-03451358 from HEK293 membranes)
- assay_conditions: radioligand competition binding
value_type: IC50 (nM)
State just the number; it will be interpreted in nM.

Reference set (8 entries):
| compound | system_under_test | output_unit | IC50 |
| --- | --- | --- | --- |
| Cn1c(-c2cc(N3CCC(S(C)(=O)=O)CC3)ncc2Cl)nc2ccccc21 [Example A-20] | human Smo (amino acids 181-787) (Homo sapiens, UniProt Q99835) | nM | 19 |
| Cn1c(-c2cc(N3[C@@H]4CC[C@H]3CN(C(=O)CO)C4)ncc2Cl)nc2ccccc21 [Example A-207] | human Smo (amino acids 181-787) (Homo sapiens, UniProt Q99835) | nM | 10 |
| Cn1c(-c2cc(N3C[C@H]4CNS(=O)(=O)[C@H]4C3)ncc2Cl)nc2ccccc21 (stereo in doubt) [Example A-55] | human Smo (amino acids 181-787) (Homo sapiens, UniProt Q99835) | nM | 26 |
| Cn1c(-c2cc(N3CCn4cnnc4C3)ncc2Cl)nc2ccccc21 [Example A-109] | human Smo (amino acids 181-787) (Homo sapiens, UniProt Q99835) | nM | 129 |
| CN(CCN)c1cc(-c2nc3ccccc3n2C)c(Cl)cn1 [Example A-184] | human Smo (amino acids 181-787) (Homo sapiens, UniProt Q99835) | nM | 342 |
| Cn1c(-c2cc(N3CCN(CCS(C)(=O)=O)CC3)ncc2Cl)nc2ccccc21 [Example A-61] | human Smo (amino acids 181-787) (Homo sapiens, UniProt Q99835) | nM | 18 |
| Cn1c(-c2cc(N3CCC(C(=O)NCCO)CC3)ncc2Cl)nc2ccccc21 [Example A-74] | human Smo (amino acids 181-787) (Homo sapiens, UniProt Q99835) | nM | 27 |
| CNC(=O)N(C)C1CN(c2cc(-c3nc4ccccc4n3C)c(Cl)cn2)C1 [Example A-151] | human Smo (amino acids 181-787) (Homo sapiens, UniProt Q99835) | nM | 90 |

Inquiry: Data request, read-out IC50, for Cn1c(-c2cc(N3C[C@@H]4[C@H](C3)[C@H]4NS(C)(=O)=O)ncc2Cl)nc2ccccc21 [Example A-8]
Reply text: 64

Inquiry: Also, Cn1c(-c2cc(N3CC(NS(=O)(=O)CCO)C3)ncc2Cl)nc2ccccc21 [Example A-200] please.
Reply text: 15

Inquiry: Also, Cn1c(-c2cc(N3CCOCC(O)C3)ncc2Cl)nc2ccccc21 (centres unmarked) [Example A-53] please.
Reply text: 12

Inquiry: Also, Cc1nnc2n1CCN(c1cc(-c3nc4ccccc4n3C)c(Cl)cn1)CC2 [Example A-67] please.
Reply text: 33

====

pIC50, human Smo (amino acids 181-787) (Homo sapiens, UniProt Q99835): measured values
Lab note: report pIC50 as minus log10 of the concentration in molar units, number only.

Inquiry: Give the reported pIC50 for "Cn1c(-c2cc(N3C[C@@H](CO)[C@@H](CO)C3)ncc2Cl)nc2ccccc21" (system: human Smo (amino acids 181-787) (Homo sapiens, UniProt Q99835)).
Reply text: 7.37

Inquiry: Also, "CC(=O)N1CCN(c2cc(-c3nc4ccccc4n3C)c(C)cn2)CC1" please.
Reply text: 7.21

Inquiry: Also, Cn1c(-c2cc(N3CCC(CO)(CCO)C3)ncc2Cl)nc2ccccc21 (centres unmarked) please.
Reply text: 7.77

Inquiry: Also, "Cn1c(-c2cc(N3CCn4c(nnc4C(F)F)C3)ncc2Cl)nc2ccccc21" please.
Reply text: 6.99

Inquiry: Also, "CC(=O)N[C@H]1[C@@H]2CN(c3cc(-c4nc5ccccc5n4C)c(Cl)cn3)C[C@@H]21" please.
Reply text: 6.72

Inquiry: Also, "Cn1c(-c2ccnc(N3CCN(S(C)(=O)=O)CC3)c2)nc2ccccc21" please.
Reply text: 6.82

Inquiry: Also, "Cn1c(-c2cc(N3CCC(C)(O)CC3)ncc2Cl)nc2ccccc21" please.
Reply text: 7.55

Inquiry: Also, "CC(=O)NC1CCN(c2cc(-c3nc4ccccc4n3C)c(Cl)cn2)CC1" please.
Reply text: 7.96

====

Measured inhibition at 0.05 µM by item
- system_under_test: human Smo (amino acids 181-787) (Homo sapiens, UniProt Q99835)
- Construct: expressed in transfected cells; membrane preparation
- assay: Smo radioligand competition binding assay (displacement of 3H-PF-03451358 from HEK293 membranes)
- assay_conditions: 0.05 μM test compound; displacement of 3H-PF-03451358; read-out: SMO % inh. @ 0.05 μM
- Procedure: Membranes were prepared from a stable cell line created in HEK293FlpIn-TetR cells (Invitrogen) using FIp recombinase-mediated insertion of the pSecTag-FRT/V5-His vector containing a cDNA encoding amino acids 181-787 of human Smo fused to the murine lgk leader sequence to produce a cell surface expressed Smo 181-781 protein. […] LacZ-negative cells were analyzed for binding tritiated Smo antagonist PF-03451358. […]
State just the number; it will be interpreted in %.

Inquiry: Data request, read-out inhibition at 0.05 µM, for "CC(=O)N1CCN(c2ccc(Cl)c(-c3nc4ccccc4n3C)n2)CC1"
Reply text: 95

====

- system_under_test: human Smo (amino acids 181-787) (Homo sapiens)
- Construct: expressed in transfected cells; membrane preparation
- assay: Smo radioligand competition binding assay (displacement of 3H-PF-03451358 from HEK293 membranes)
- assay_conditions: 0.05 μM test compound; displacement of 3H-PF-03451358; read-out: SMO % inh. @ 0.05 μM
Measured inhibition at 0.05 µM by item
State just the number; it will be interpreted in %.

Reference set (7 entries):
| chemical_smiles | value_type | observed_result |
| --- | --- | --- |
| Cn1c(-c2cc(N3CCN(C=O)CC3)ncc2Cl)nc2cccnc21 | inhibition at 0.05 µM | 81 |
| Cn1c(-c2cc(N3CCC(O)(CN4CCOCC4)CC3)ncc2Cl)nc2ccccc21 | inhibition at 0.05 µM | 89 |
| CC(=O)N1CCN(c2cc(-c3nc4ccccc4n3C)c(F)cn2)CC1 | inhibition at 0.05 µM | 97 |
| COCc1nc(C2CCN(c3cc(-c4nc5ccccc5n4C)c(Cl)cn3)CC2)no1 | inhibition at 0.05 µM | 100 |
| Cn1c(-c2cc(N3CCN(C(=O)CC(C)(C)O)CC3)ncc2Cl)nc2ccccc21 | inhibition at 0.05 µM | 98 |
| CC(=O)NC1CN(c2cc(-c3nc4ccccc4n3C)c(Cl)cn2)C1 | inhibition at 0.05 µM | 86 |
| COCCc1[nH]nc2c1CN(c1cc(-c3nc4ccccc4n3C)c(Cl)cn1)CC2 | inhibition at 0.05 µM | 84 |

# ---- query compound ----
Inquiry: Data request, read-out inhibition at 0.05 µM, for "Cn1c(-c2cc(N3CCC(CS(C)(=O)=O)CC3)ncc2Cl)nc2cccnc21"
Reply text: 98

Provenance of the data: patent US20120157471A1
